Cited source: patent US12195427B2

Answer each item with its documented H-bond distance to MASP-2 ASP 627 atom OD2.
STUDY_TARGET: MASP-2 CCP2-SP (Homo sapiens (Human), UniProt O00187)
Sequence (O00187 445-686): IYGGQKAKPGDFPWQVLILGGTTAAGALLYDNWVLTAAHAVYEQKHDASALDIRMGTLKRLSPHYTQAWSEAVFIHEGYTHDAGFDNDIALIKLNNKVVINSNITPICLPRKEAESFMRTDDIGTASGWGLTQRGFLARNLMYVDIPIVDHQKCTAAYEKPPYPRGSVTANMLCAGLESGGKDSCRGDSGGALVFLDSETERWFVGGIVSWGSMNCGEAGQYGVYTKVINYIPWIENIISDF
Sequence (O00187 364-432 partner): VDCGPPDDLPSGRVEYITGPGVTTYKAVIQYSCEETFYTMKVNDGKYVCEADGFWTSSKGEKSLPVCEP
ASSAY_NAME: MASP-2 co-crystallization, X-ray crystallography and structure analysis (H-bonds, van der Waals contacts)
ASSAY_SETUP: Table A1 (H-Bonds); ASP 627 OD2
Counter-ions that a name gives are not always drawn.
Numbers only.

Worked examples follow.
COMPOUND	TEST_VALUE
Cc1nc(N)ccc1CNC(=O)[C@H](C)NC(=O)[C@H]1C[C@@H](c2cccc3ccccc23)CCN1 [compound 1297]	3.13
Cc1nc(N)ccc1CNC(=O)[C@H](C)NC(=O)[C@H]1C[C@H](Cc2ccccc2-c2ccccc2)CN1 [compound 1373, Di-trifluoroacetate salt]	3.21

Consider the following items and state reported H-bond distance to MASP-2 ASP 627 atom OD2 for each.
1. C[C@H](NC(=O)[C@H]1C[C@H](c2ccccc2)CN1)C(=O)NCc1ccc(C(=N)N)cc1 [compound 1036]
2. Cc1nc(N)ccc1CNC(=O)[C@H](C)NC(=O)c1cc(Cc2ccccc2)n[nH]1 [compound 1367]
3. Cc1cnc(NCCc2ccccc2)c(=O)n1CC(=O)NCc1ccc2nc(N)[nH]c2c1 [compound 1492]
4. Cc1nc(N)ccc1CNC(=O)[C@H](C)NC(=O)[C@H]1C[C@@H](Cc2ccccc2)CCN1 [compound 1353]
5. C[C@H](NC(=O)[C@H]1C[C@@H](c2ccccc2)CCN1)C(=O)NCc1ccc(N)nc1 (stereo in doubt) [compound 1025]

Response:
[2.96, 3.15, 3.32, 3.17, 3.11]

----------
STUDY_TARGET: MASP-2 CCP2-SP (Homo sapiens (Human))
ASSAY_NAME: MASP-2 co-crystallization, X-ray crystallography and structure analysis (H-bonds, van der Waals contacts)
ASSAY_SETUP: Table A7-1; between pharmacophore elements of the bound compound
Text: This example illustrates the preparation of recombinant MASP-2 protein, based on UniProt O00187, human mannan-binding lectin serine protease 2. Expression constructs for human MASP-2 CCP2-SP and CCP2-SP-6HIS were generated for recombinant expression in E. coli cells. […]
MEASURED_QUANTITY: Pharmacophore torsion angle a(H4, O1, O2, H3)
Answers are plain numbers.

Below, 3 compounds whose answers are already recorded.
COMPOUND	TEST_VALUE
C[C@H](NC(=O)[C@H]1C[C@@H](c2ccccc2)CCN1)C(=O)NCc1cnc2[nH]cc(Cl)c2c1	109.26
C[C@H](NC(=O)[C@H](N)CCc1ccccc1)C(=O)NCc1ccc(N)nc1.Cl.Cl [1007_1]	50.93
C[C@H](NC(=O)[C@H]1C[C@@H](c2ccccc2)CCN1)C(=O)NCc1cc(Cl)ccc1O.Cl [1078_14]	−134.39

Now for a further compound.
Form: compound = "Cc1nc(N)ccc1CNC(=O)[C@H](C)NC(=O)[C@H]1C[C@H](Cc2ccc(-c3ccccc3)cc2)CN1" ; Pharmacophore torsion angle a(H4, O1, O2, H3) = 51.88

----------
STUDY_TARGET: MASP-2 CCP2-SP (Homo sapiens (Human), UniProt O00187)
ASSAY_NAME: MASP-2 co-crystallization, X-ray crystallography and structure analysis (H-bonds, van der Waals contacts)
ASSAY_SETUP: Table A1 (H-Bonds); SER 657 OG
MEASURED_QUANTITY: H-bond distance to MASP-2 SER 657 atom OG
One number for each entry.

Example entries begin here.
C[C@H](NC(=O)[C@H]1C[C@H](c2ccccc2)CN1)C(=O)NCc1ccc2c(N)nccc2c1 2.73
C[C@H](NC(=O)[C@@H](CCc1ccccc1)NCc1ccc(N2CCOCC2)cc1)C(=O)NCc1ccc(C(=N)N)cc1 3.19
Cc1cnc(NCCc2ccccc2)c(=O)n1CC(=O)NCc1ccc2nc(N)[nH]c2c1 2.62

Consider now this further molecule.
Entry "C[C@H](NC(=O)[C@H](N)C1Cc2ccccc2C1)C(=O)NCc1ccc2nc(N)[nH]c2c1" ; H-bond distance to MASP-2 SER 657 atom OG = 2.94
